Measured Binding Affinity to Mouse MHC Class I (percent increase of D^b or K^b on RMA-S cells), listed per entry for reference.
Molecular target: Mouse MHC Class I (mouse B6 class I antigens; D^b or K^b molecules on the surface of RMA-S cells) (mouse)
Assay: RMA-S cells incubated with peptide 25 ug/ml, stained with FITC anti-D^b or anti-K^b, flow cytometry; increase in MFI over medium alone
I only need the number, in %, no unit after it.

Consider the binder NQMNLGATL [WT1 peptide p239-247 …] . State its measured Binding Affinity to Mouse MHC Class I (percent increase of D^b or K^b on RMA-S cells). 1

Consider the binder ALLPAVPSL [WT1 peptide human p10-18 …] . State its measured Binding Affinity to Mouse MHC Class I (percent increase of D^b or K^b on RMA-S cells). 2.2

New cases:
Consider the binder NLYQMTSQL [WT1 peptide p225-233 …] . State its measured Binding Affinity to Mouse MHC Class I (percent increase of D^b or K^b on RMA-S cells). 5.8

Consider the binder SCLESQPAI [WT1 peptide human p136-144 …] . State its measured Binding Affinity to Mouse MHC Class I (percent increase of D^b or K^b on RMA-S cells). 52

Consider the binder YSSDNLYQM [WT1 peptide p221-229 …] . State its measured Binding Affinity to Mouse MHC Class I (percent increase of D^b or K^b on RMA-S cells). 0.8
